molecular target: HIV-1 protease (Human immunodeficiency virus type 1 group M subtype B, UniProt P04585); experiment: biochemical; conditions: Table I; Dose 1.100 μM; read-out: Protease % Inhib
I'd appreciate it if you could supply inhibition at 1.1 µM values for the items below.
Give bare numbers, in %.

CCCC1(CCc2ccccc2)CC(O)=C(C(c2cccc(NS(=O)(=O)c3cccc4cccnc34)c2)C2CC2)C(=O)O1 (stereo not shown) = 101

Give me inhibition at 1.1 µM for each of these compounds, listed below.
1. CC[C@H](Cc1ccccc1)c1cc(O)c(C(c2cccc(NS(=O)(=O)c3cn(C)cn3)c2)C2CC2)c(=O)o1 (single isomer, unassigned) [Example 137]
2. CC[C@H](Cc1ccccc1)c1cc(O)c(C(c2cccc(NS(=O)(=O)c3ncc[nH]3)c2)C2CC2)c(=O)o1 (stereo partly shown)
3. O=c1oc(C(CC2CC2)CC2CC2)cc(O)c1C(c1cccc(NS(=O)(=O)c2cccc3cccnc23)c1)C1CC1 (stereo not shown)
4. CCC(CC1CCOCC1)c1cc(O)c(C(c2cccc(NS(=O)(=O)c3nccn3C)c2)C2CC2)c(=O)o1 (stereo not shown)

Solution:
1. 101
2. 112
3. 122
4. 99.7

Below is a list of compounds. For each, state its recorded inhibition at 1.1 µM.
1. O=c1oc2c(c(O)c1C(c1cccc(CS(=O)(=O)c3ccc(F)cc3)c1)C1CC1)CCCCCC2 (stereo not shown)
2. O=c1oc(C(CC2CC2)CC2CC2)cc(O)c1C(c1cccc(NS(=O)(=O)c2nc3ccccc3[nH]2)c1)C1CC1 (stereo not shown)

Solution:
[91.8, 93.3]
